Hey, just so you know, these numbers are from patent US10316039B2.

molecular target: UniProt P56373; test: P2X3 FLIPR intracellular calcium assay; conditions: agonist at EC75, species (human or rat) not given
pIC50: −log10 of the molar value.
Value kind: pIC50

Smi	Result
CCc1cnnn1-c1cc(C(=O)N[C@@H](CC)c2nnc[nH]2)cn2c(-c3ccc(C)s3)cnc12	7.00 to 9.00
Cc1ccc(CNC(=O)c2cc(-n3nncc3C(F)(F)F)c3ncc(-c4ncc(C)s4)n3c2)cn1	7.00 to 9.00
C[C@H](NC(=O)c1cc(-n2nnnc2C(C)(F)F)c2ncc(-c3ccc(Cl)s3)n2c1)c1nnc[nH]1	7.00 to 9.00

So for "Cc1ccc(-c2cnc3c(-n4nnnc4C(C)(F)F)cc(C(=O)N[C@@H](C)c4nnc[nH]4)cn23)s1" , the logged pIC50 turned out to be 7.00 to 9.00

====

molecular target: P2X2/3 (Homo sapiens, UniProt P56373+Q9UBL9); assay: P2X2/3 FLIPR intracellular calcium assay; details: agonist at EC75, species (human or rat) not given
Sequence (Q9UBL9 whole entry, one chain of several): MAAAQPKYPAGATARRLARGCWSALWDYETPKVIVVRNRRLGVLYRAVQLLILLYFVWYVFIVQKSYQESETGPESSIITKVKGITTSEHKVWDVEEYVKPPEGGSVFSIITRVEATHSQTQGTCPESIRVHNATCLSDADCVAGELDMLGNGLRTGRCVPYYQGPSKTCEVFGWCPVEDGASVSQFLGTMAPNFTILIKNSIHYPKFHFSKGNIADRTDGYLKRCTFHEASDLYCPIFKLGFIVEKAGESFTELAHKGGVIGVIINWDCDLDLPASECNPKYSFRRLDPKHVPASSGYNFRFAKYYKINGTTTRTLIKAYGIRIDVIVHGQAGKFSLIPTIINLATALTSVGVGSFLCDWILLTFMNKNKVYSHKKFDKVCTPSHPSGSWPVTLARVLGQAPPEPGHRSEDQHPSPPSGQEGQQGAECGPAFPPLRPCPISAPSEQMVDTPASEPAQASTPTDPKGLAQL
pIC50: −log10 of the molar value.
Value kind: pIC50

Solved cases below.
Molecule	Target desc	pIC50
Cc1ccc(-c2cnc3c(-n4nncc4C(C)C)cc(C(=O)N[C@@H](C)c4nnc[nH]4)cn23)s1 [Example 37]	P2X2/3 (Homo sapiens, UniProt P56373+Q9UBL9)	7.00 to 9.00
Cc1ccc(-c2cnc3c(-n4nncc4C)cc(C(=O)N[C@H](c4nnc[nH]4)C(C)C)cn23)s1 [Example 74]	P2X2/3 (Homo sapiens, UniProt P56373+Q9UBL9)	5.00 to 6.00
Cc1cnc(CNC(=O)c2cc(-n3nncc3C(F)F)c3ncc(-c4ncc(C)s4)n3c2)cn1 [Example 77]	P2X2/3 (Homo sapiens, UniProt P56373+Q9UBL9)	6.00 to 7.00
Cc1ccc(-c2cnc3c(-n4nnnc4CC(F)(F)F)cc(C(=O)N[C@@H](C)c4nnc[nH]4)cn23)s1 [Example 181]	P2X2/3 (Homo sapiens, UniProt P56373+Q9UBL9)	7.00 to 9.00

Give measured pIC50 for every item shown.
1. Cc1ccc(CNC(=O)c2cc(-n3nncc3C(F)F)c3ncc(-c4ncc(C)s4)n3c2)cn1 [Example 36]
2. CC[C@H](NC(=O)c1cc(-n2nnnc2C(F)F)c2ncc(-c3ccc(Cl)s3)n2c1)c1nnc[nH]1 [Example 174]

7.00 to 9.00
7.00 to 9.00

# molecule Cc1ccc(-c2cnc3c(-c4c(C)n[nH]c4C)cc(C(=O)N[C@@H](C)c4nnc[nH]4)cn23)s1 [Example 110] ; its pIC50 = 7.00 to 9.00

====

biological target: P2X2/3 (Homo sapiens, UniProt P56373+Q9UBL9); test: P2X2/3 FLIPR intracellular calcium assay; settings: agonist at EC75, species (human or rat) not given
pIC50: −log10 of the molar value.
Value kind: pIC50

Compound	Target desc	Result
Cc1ncc(CNC(=O)c2cc(-n3nncc3C(F)F)c3ncc(-c4ccc(C)s4)n3c2)cn1	P2X2/3 (Homo sapiens, UniProt P56373+Q9UBL9)	7.00 to 9.00
COC1CCN(c2cc(C(=O)N[C@@H](C)c3nnc[nH]3)cn3c(-c4ccc(C)s4)cnc23)C1 (stereo partly shown)	P2X2/3 (Homo sapiens, UniProt P56373+Q9UBL9)	6.00 to 7.00
Cc1cnc(CNC(=O)c2cc(-n3nnnc3C3CCC3)c3ncc(-c4ccc(C)s4)n3c2)cn1	P2X2/3 (Homo sapiens, UniProt P56373+Q9UBL9)	7.00 to 9.00

// compound COC1(C)CCN(c2cc(C(=O)N[C@@H](C)c3nnc[nH]3)cn3c(-c4ccc(C)s4)cnc23)C1 (stereo partly shown) , assay P2X2/3 (Homo sapiens, UniProt P56373+Q9UBL9), pIC50 value: 6.00 to 7.00

====

Can you tell me pIC50 for the items I'm about to list?
target: P2X2/3 (Homo sapiens, UniProt P56373+Q9UBL9); experiment: P2X2/3 FLIPR intracellular calcium assay; details: agonist at EC75, species (human or rat) not given
pIC50: −log10 of the molar value.

# count of solved cases: 5
Compound	Target desc	pIC50
Cc1ccc(CNC(=O)c2cc(-n3nncc3C(C)C)c3ncc(-c4ccc(C)s4)n3c2)cn1 [Example 45]	P2X2/3 (Homo sapiens, UniProt P56373+Q9UBL9)	7.00 to 9.00
Cc1ccc(-c2cnc3c(-c4ccnn4C)cc(C(=O)N[C@@H](C)c4nnc[nH]4)cn23)s1 [Example 100]	P2X2/3 (Homo sapiens, UniProt P56373+Q9UBL9)	6.00 to 7.00
Cc1ncc(CNC(=O)c2cc(-c3c(C)n[nH]c3C)c3ncc(-c4ccc(C)s4)n3c2)cn1 [Example 111]	P2X2/3 (Homo sapiens, UniProt P56373+Q9UBL9)	7.00 to 9.00
Cc1ccc(-c2cnc3c(-c4cnn(C)c4)cc(C(=O)NCc4ccn(C)c(=O)c4)cn23)s1 [Example 99]	P2X2/3 (Homo sapiens, UniProt P56373+Q9UBL9)	5.00 to 6.00
Cc1ncc([C@@H](C)NC(=O)c2cc(-n3nncc3C(F)F)c3ncc(-c4ncc(C)s4)n3c2)cn1 [Example 84]	P2X2/3 (Homo sapiens, UniProt P56373+Q9UBL9)	7.00 to 9.00

Here are 5 compounds. What values of pIC50 were reported for them?
1. CCCc1cnnn1-c1cc(C(=O)NCc2cnc(C)nc2)cn2c(-c3ncc(C)s3)cnc12 [Example 64]
2. Cc1ccc(-c2cnc3c(-n4nncc4C(C)(F)F)cc(C(=O)N[C@@H](C)c4nnc[nH]4)cn23)s1 [Example 70]
3. Cc1ccc(-c2cnc3c(Nc4ccccc4)cc(C(=O)N[C@@H](C)c4nnc[nH]4)cn23)s1 [Example 7]
4. C[C@H](NC(=O)c1cc(-n2nncc2C(F)(F)F)c2ncc(-c3ccc(Cl)s3)n2c1)c1nnc[nH]1 [Example 79]
5. Cc1ccc(CNC(=O)c2cc(N3CCC(C)(C(N)=O)CC3)c3ncc(-c4ccc(C)s4)n3c2)cn1 [Example 148]

6.00 to 7.00
7.00 to 9.00
6.00 to 7.00
7.00 to 9.00
7.00 to 9.00

====

Target: P2X3 (UniProt P56373)
Sequence (P56373 1-397): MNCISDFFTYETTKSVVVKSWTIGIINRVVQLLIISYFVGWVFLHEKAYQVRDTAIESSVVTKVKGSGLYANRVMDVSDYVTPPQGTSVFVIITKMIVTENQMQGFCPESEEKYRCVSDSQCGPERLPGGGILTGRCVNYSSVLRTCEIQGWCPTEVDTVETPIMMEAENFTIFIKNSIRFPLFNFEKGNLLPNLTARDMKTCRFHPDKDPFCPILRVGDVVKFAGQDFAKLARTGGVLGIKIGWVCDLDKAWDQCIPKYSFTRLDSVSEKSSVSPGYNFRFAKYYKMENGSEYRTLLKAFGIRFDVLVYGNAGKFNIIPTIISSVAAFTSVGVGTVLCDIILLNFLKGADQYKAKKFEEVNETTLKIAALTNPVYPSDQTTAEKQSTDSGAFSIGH
Assay: P2X3 FLIPR intracellular calcium assay
Conditions: agonist at EC75, species (human or rat) not given
pIC50: −log10 of the molar value.
Record form. Attribute: pIC50. Fill in for each entry.

Answered cases to consult:
Compound	Result
Cc1ccc(CNC(=O)c2cc(-n3nncc3C(C)(F)F)c3ncc(-c4ncc(C)s4)n3c2)cn1 [Example 87]	6.00 to 7.00
CC[C@H](NC(=O)c1cc(-n2nnnc2C(F)F)c2ncc(-c3ccc(C)s3)n2c1)c1nnc[nH]1 [Example 171]	7.00 to 9.00
Cc1ccc(CNC(=O)c2cc(-n3nncc3C3CC3)c3ncc(-c4ccc(C)s4)n3c2)cn1 [Example 25]	7.00 to 9.00

Could I get pIC50 for every one of these entries?
1. Cc1cnc(CNC(=O)c2cc(-n3nnnc3C(F)F)c3ncc(-c4ncc(C)s4)n3c2)cn1 [Example 185]
2. Cc1ncc(CNC(=O)c2cc(-n3nncc3C(F)F)c3ncc(-c4cnc(C)s4)n3c2)cn1 [Example 66]
3. Cc1ccc(CNC(=O)c2cc(-n3nnnc3C(C)C)c3ncc(-c4ccc(C)s4)n3c2)cn1 [Example 151]
4. Cc1cccc(-c2cnc3c(N4CCC(C)CC4)cc(C(=O)N[C@@H](C)c4ncn[nH]4)cn23)c1 [Example 149]
5. Cc1ccc(CNC(=O)c2cc(-n3nncc3C(F)F)c3ncc(-c4ccc(C)s4)n3c2)cn1 [Example 27]
6. Cc1ccc(-c2cnc3c(N4CCC(F)(F)CC4)cc(C(=O)N[C@@H](C)c4cc[nH]n4)cn23)s1 [Example 143]
7. CC[C@H](NC(=O)c1cc(N2CCC(OC)CC2)c2ncc(-c3ccc(C)s3)n2c1)c1nnc[nH]1 [Example 146]
8. CCc1cnnn1-c1cc(C(=O)NCc2cnc(C)nc2)cn2c(-c3ncc(C)s3)cnc12 [Example 75]

["6.00 to 7.00", "6.00 to 7.00", "7.00 to 9.00", "6.00 to 7.00", "7.00 to 9.00", "5.00 to 6.00", "7.00 to 9.00", "7.00 to 9.00"]
